Tested on: Pseudomonas aeruginosa strain 8128
Experiment: Antibiogram by diffusion technique (CA-SFM 2008); further: key: sensitive (S): strains for which the MIC of the antibiotic tested is less than or equal to the lower critical concentration c; resistant (R): strains for which the MIC of the antibiotic tested are greater than the upper critical concentration C; intermediate sensitivity (I): strains for which the MIC of the antibiotic tested and the corresponding diameter are between the two critical concentrations and the two critical diameters
Assay type: cell-based

# structureSmilesString, Cat.
data = [
    ("NC[C@H]1O[C@H](O[C@H]2[C@H](O)[C@@H](O[C@H]3O[C@H](CO)[C@@H](O)[C@H](N)[C@H]3O)[C@H](N)C[C@@H]2N)[C@H](O)[C@@H](O)[C@@H]1O", "R"),
    ("C[C@@H](O)[C@H]1C(=O)N2C(C(=O)O)=C(SCCN=CN)C[C@H]12", "I"),
    ("C[C@H]1COc2c(N3CCN(C)CC3)c(F)cc3c(=O)c(C(=O)O)cn1c23", "S"),
    ("CC(=O)OCC1=C(C(=O)O)N2C(=O)[C@@H](NC(=O)Cc3cccs3)[C@H]2SC1", "R"),
]
